assay: yeast display, Sf9 membrane polyspecificity reagent, FACS + sequencing; frameworks hold sequencing errors
readout: polyreactivity (PSR sort gate)

>  <construct-sequence>
QVQLVESGGGLVQAGGSLRLSCAASGRTFGLNVMGWYRQAPGKERELVATISWSGGTTYYADSVKGRFTISRDYAKNTVYLQMNSLKPEDTAVYYCNRQVTWYPTGGFWGQGTQVTVSS

>  <result>
low polyreactivity

$$$$
>  <construct-sequence>
QVQLVESGGGLVQAVVSLRLSCAASGRIFAYNAMGWYIQATGKERELVAAISSGGNTYYADSVKGRFTISRDNAKNTVYLQMNSLKPEDTAVYYCNAGVGWHRYYSNYDYWGLGTQVTVSS

>  <result>
low polyreactivity

$$$$
>  <construct-sequence>
QVQLVESGGGLVQAGGSLRLSCAASGFIFAYNAMGWYRQAPGKERELVAAITGSGTRTYYADSVKGRFTISRDKAKNTVYLQMYSLKPEDTAVYYCAARFPRDTYYYWGQGTQVTVSS

>  <result>
high polyreactivity

$$$$
>  <construct-sequence>
QVQLEESGGGLVQAGGSLRLSCAASGRTFDRYAMGWYRQAPGKERELVAAITWSGGRTYYADSVKGRFTISRVNAKNTVYLQMNSLKPEDTAVYYCAADNSYRGYHSPYDYWGQGTQVTVSS

>  <result>
low polyreactivity

$$$$
>  <construct-sequence>
QVQLQESGGGLVQAGGSLRLSCAASGNFFDADIMGWYRQAPGKERELVASITDGGSTNYAVSVKGRFTISRGNTKNTVYLLMNCLKPEDTSVYYCAAIAYPDIPTYFDYNSDYFYWGQGTQVTVSS

>  <result>
high polyreactivity

$$$$

###

assay: yeast display, Sf9 membrane polyspecificity reagent, FACS + sequencing; frameworks hold sequencing errors
readout: polyreactivity (PSR sort gate)

>  <construct-sequence>
QVQLVESGGGLVQAGGSLRLSCAASGRIYWLYAMGWYRQAPGKERELVAAITGIGGSTYYADSVKVRFTISRDNAKNTVYLQMNSLKPEDTAVYYCAARNPASTAWMNYWGQGTQVNVSS

>  <result>
low polyreactivity

$$$$
>  <construct-sequence>
QVQLQESGGGLVQAGGSMRLSCAASGSISELSPMGWYRQAPGKERELVAGISTGGSTNYADSVKGRFTISRDNAKNTVYLQMNSLKPEDTAVYYCAAASYGEGSYDYWGQGTQVTVRS

>  <result>
high polyreactivity

$$$$
>  <construct-sequence>
QVQLEESGGGLVQAGRSLRLSCAASGRIFTYYSMGWYRQAPWKERELVAAISRSGRTYYADSVKGRFTISRDNAKNTVYLQMNILIPEDTAVYYCAAEYYYSWFEYWGQGTQVTVSS

>  <result>
high polyreactivity

$$$$
>  <construct-sequence>
QVQLVDSGGRLFQAGGSLRLSCAAYGFSFSYYDMGSYRQAPGKERELVAAIFSNGRTYYADSVKGRFTISRDNAKNTVYLQMNSLKPVDTAVYYCAAAYVGYYYSRGFDYWGQGTQVTVSS

>  <result>
high polyreactivity

$$$$
>  <construct-sequence>
QVQLVESGGGLVQAGGSLRLSCAASGLIFDLYAMGWYRQAPGKERELVAAITWSGGSTYYADSVKGRFTISRDNAKNTVYLQMNSLKPEDTAVYYCAAETHLWYDFDYWGQGTQVTVSS

>  <result>
high polyreactivity

$$$$
>  <construct-sequence>
QVQLVESGGGIVQAGGSLRLSCAASGRIIVNYAMGWYRQAPGKERELVAAISYSGGGTYYADSVKGRFTISRDNAKNTVYLHMNSLKPEDTAVYYCATVRRDDRYNYWGQGNQVTVSS

>  <result>
low polyreactivity

$$$$
>  <construct-sequence>
QVQLVESGGGLVQAGGSLRLSSSACGSTFYKNAMGWDRQAPGKERELVAGISRRGGRTYYADSLKGRFTISRDNANNTVYLQMNSLKPVDTADYYCNTGHEEDEYDYWGQGTQVTVSS

>  <result>
low polyreactivity

$$$$
>  <construct-sequence>
QVQLVESGGGLVQAGGSLRLSCAASGRTFASNAMGWYRQAPGKERELVAAISYSGGRTYYADSVKGRFTISRDNAKNTVYLQMNSLKPEDTAVYYCAKVGPVYKYDYWGLGTQVTVSS

>  <result>
high polyreactivity

$$$$
>  <construct-sequence>
QVQLVESGGGIVQAGGSLRLSCAASGRIFKWNAMGWYRQAPGKERELVAAISTSRGNTYYADSVKGRFTSSRDYAKNTVYLLMNSLKPEDTAGYYCAATYPISLRQVGYWGQATQVTVSS

>  <result>
high polyreactivity

$$$$
>  <construct-sequence>
QVQLVESGGGLVQAGGSLRLSCAASGRIFRKYTKGWYRQAPGKERELVAAITGTGGSTYYADSVKGRFTISRDNAKNTVYLQMNSLKPEDTAVYYCAADYSARYGFWGLGTQVTVSS

>  <result>
high polyreactivity

$$$$
>  <construct-sequence>
QVQLVETGGGLVQAGGSLRLSCAASGRTFLDYTMGWYRQAPGKERELVAAIRTSAGSTYYADSVKGRFTISRDNAKNTVYLQMNSLKPEDTAVYYCAKRQRGYFYEYYLYYSWGQGTQVTVSS

>  <result>
low polyreactivity

$$$$

###

experiment: yeast display, Sf9 membrane polyspecificity reagent, FACS + sequencing; frameworks hold sequencing errors
readout: polyreactivity (PSR sort gate)

>  <construct-sequence>
QVQLVESWGGLVKAGGSLRLSCAASGRTIRGYTMGWNRQAPGKQRELVAAISQSGGRTHYADSVKGRFTISRDNAKNTVYLEMKSLKPEDTAVYYCAARGQRERSYPLYDYWGQGTQVTVSS

>  <readout>
polyreactivity (PSR sort gate)

>  <result>
high polyreactivity

$$$$
>  <construct-sequence>
QVQLVESGGGLVQAGGSLRLSCAASGSTLIRNVMGWYRQAPGKESELDAAITWSGASTYYADSVKGRFTISRDNAKNTVYLQMNSLKPEDTAVYYCAARALNWSRVARYNYWGQGTQVTVSS

>  <readout>
polyreactivity (PSR sort gate)

>  <result>
high polyreactivity

$$$$

###

test: yeast display, Sf9 membrane polyspecificity reagent, FACS + sequencing; frameworks hold sequencing errors

>  <construct-sequence>
QVQLVESGGGLVQAGGSLRLSCAASGRIFDRNAMGWYRQAPGKERELVATISSGDTTDYADSVKGRFTISRDNAKNTVYLQMNSLKPEDTAVYYITIYNYWGQGTQVTVSS

>  <polyreactivity (PSR sort gate)>
low polyreactivity

$$$$
>  <construct-sequence>
QVQLVESGGGLVQAGGSLRLSCAASGSTFGYYGMGWYRQAPGKERELVASIDSRGDSTYADSVKGRFTISRDNAKNTVYLQMNSLKPEDTAVYYCAADSWYSWFDSWGQGTQVTVSS

>  <polyreactivity (PSR sort gate)>
low polyreactivity

$$$$
>  <construct-sequence>
QVQLVESWGGLVQAGGSLRLSCAASGRTFFYYAMGWYRQAPWKERELVAAISKSGGRTYYADSVKGRFTISRDNAKNTVYLQMNSLKPEDTAVYYCATLAQWYDRELDYWGQGTQVTVSS

>  <polyreactivity (PSR sort gate)>
high polyreactivity

$$$$
>  <construct-sequence>
QVQLVESGGGFVQAGGSLRLSCAASGSIFGSYAMGWYRQAAGKERELVPDISSGGSTNYADSVKGRFTISRDNAKYTVYLQMNSLKPEDTAVYYCNADDPAGYLYWWGSWLESDYWGQGTQVTVSS

>  <polyreactivity (PSR sort gate)>
low polyreactivity

$$$$
>  <construct-sequence>
QVQLVESGGGLVQAGGSLRLSCAASGRIFERYAMGWYRQAPGKERELVAAISGGGSTYYADSVKGRFTISRDNAKNTVYLQMNSLTPEDTAFYYCNTRGNSRMDYWGQGTQVTVSS

>  <polyreactivity (PSR sort gate)>
high polyreactivity

$$$$

###

test: yeast display, Sf9 membrane polyspecificity reagent, FACS + sequencing; frameworks hold sequencing errors

>  <construct-sequence>
QVQLVESGGGLVQAGGSLRLSCAASGSTFQYYAMGWYRQAPGKERELVARISDSSANTYYADSVKGRFTISRDNAKNTVYLQMNSLKPEDTAVYYCAASVPYKFYSVVSVRYEYWGQGTQVTVSS

>  <polyreactivity (PSR sort gate)>
low polyreactivity

$$$$
>  <construct-sequence>
QVQLVESGGGLVQAGGSLRLSCAASGFTFRWYDMGWYRKAPGKERELVAAIDASDGSTYYADSVKGRFTISRDNAKNTVYLLMNSLKPEDTAVYYCAAEDYQPYFYLYWYDYWGQGTQVTVSS

>  <polyreactivity (PSR sort gate)>
high polyreactivity

$$$$
>  <construct-sequence>
QVQLVESGGGLVQAGGSLRLSCAASGSIFRLYAMGWYRQAPGKERELVATITSGGNTYADSVKGRFTISRDNAKNTVYLQMNSLKPEDTAVYYCATTVYAYSYGYEYWGQGTQVTVSS

>  <polyreactivity (PSR sort gate)>
high polyreactivity

$$$$
>  <construct-sequence>
QFQLVESGGGLVQAGGSLRLSCAASGSTFNYNAMGWYRQAPGIERELVAAISSSAGSTYYADSVKGRFTISRDNAKNTVYLQMNILKPEDTAVYYCANGGSSRVRTEGDYWGQGTQVTVSS

>  <polyreactivity (PSR sort gate)>
low polyreactivity

$$$$
>  <construct-sequence>
QVQLVESGGGLVQAGGSLRLSCAASGSTFGHYAMGRYRQAPGKESELVSAISTSGGRTYYADSVKGRFTISRDNAKNTVYLQMNSLKPEDTAVYYCATRRYGVDKFDYWGQGTQVTVSS

>  <polyreactivity (PSR sort gate)>
high polyreactivity

$$$$
>  <construct-sequence>
QVQLVESGGGLVQAGGSLRLSCAASGLTFTVNAMGWYRQAPGKERELVARIRNSGGRTYYADSVKGRFTISRDNAKNTVYLQMNSLKPEDTAVYYCAARRYYYQVGYDYWGQGTQVTVSS

>  <polyreactivity (PSR sort gate)>
high polyreactivity

$$$$
>  <construct-sequence>
QVQLVESGGGLVQAGGSLRLSCAASGFTFIFNAMGWYRQAPGKERELVATISWGGGSTYYADSVKGRFTISRDNAKNTVYLQMNSLKPEDTAVYYCNADGYTLWYEYDYWGQGTQVTVSS

>  <polyreactivity (PSR sort gate)>
low polyreactivity

$$$$
>  <construct-sequence>
QVQLVESVGGLVQAGGSLRLSCAASGRTFYHYAIGWYIQAPGQERELVAAITYRGGNTYYADSVKGRFTISRDNAKNTVYLQMNRLKPEDTAVYYCAKQGVRRHYGYDYWGQGTQVTVSS

>  <polyreactivity (PSR sort gate)>
high polyreactivity

$$$$
>  <construct-sequence>
QVQLVESGGGLVQAGGSLRLSCAASGRTFFINAMGWYRQAPGKERELVAAMRVGAGSTYYADSVKGRFTISRDNAKNTVYLQMNSLKPEDTAVYYCSKRTATSTRKYDYWGQGTQVTVSS

>  <polyreactivity (PSR sort gate)>
high polyreactivity

$$$$
>  <construct-sequence>
QVQLVESGGGLVQAGGSLRLSCPASGLIFVDNAMGWYRQAPGKERELVAAIDSGGSTNYADSVKGRFTISRDNAKNTVYLQMNRLQPEDTAVYYCAADGIYAPWYYQESVEYYFWGQGTQVTVSS

>  <polyreactivity (PSR sort gate)>
low polyreactivity

$$$$
>  <construct-sequence>
QVQLVESGGGLVQAGGSLSLSCAASGLTSSENAMGWYRQAHGKERELVAAINVSGGSTYYADSVKGRFTISRDNAKNTVYLQMNSLKPEDTAVYYCAADNPYAYARSSWYEYNYWGQGTQVTVSS

>  <polyreactivity (PSR sort gate)>
high polyreactivity

$$$$
>  <construct-sequence>
QVQLVESGGGLVQAGGSLRLSCAASGRTFSYYAMGWYRQAPGKERELVAYITSSGGSTYYADSVKGRFTISRDNAKNTVYLQMNSLKPEDTAVYYCATRGGSRARGMDYWGQGTQVTVSS

>  <polyreactivity (PSR sort gate)>
high polyreactivity

$$$$
>  <construct-sequence>
QVQLVDSGGGLVQAGGSLRLSCAASGLTILPNAMGWSRQAPGNDRELVAAISWGDGNTYYADSVKGRFTISRDNAKNTVYLQMNSLKPEDTAVYYCAADVIKSRTYDYWGQGTQVTVSS

>  <polyreactivity (PSR sort gate)>
low polyreactivity

$$$$
>  <construct-sequence>
QVHHVESGGGLVQAGGSLRLSSAASGSIFTYTMGWYRQAPGKERELVAAISGGGGRTYYADSVKGRFTISRDNAKNNVYLQMKSLKPEDSAVYYCNAYQYWRYRWQYNYWGQGTQVTVSW

>  <polyreactivity (PSR sort gate)>
high polyreactivity

$$$$
>  <construct-sequence>
QVQLVESGGGLVQAGGSLRLSCAASGSTFWDYAMGWYRQSPGKERELVAGITYSGTSTYYADSVKARFTISRDHAKNTVYLQMNSLKPEDTAVYYCAAESQAVGWWTPGYDYWGQGTQVTVSS

>  <polyreactivity (PSR sort gate)>
low polyreactivity

$$$$
>  <construct-sequence>
QVKLVESGGGLVQAGCSLRLSCAASGRIYGGYTMGRYRPAPGKERELVAAITGSGGRTYFADSVKGRFTISRDNAKNTVYLHMNILTPEDTAVYYCNTVYPYRYYWGHGTQVTVSS

>  <polyreactivity (PSR sort gate)>
high polyreactivity

$$$$
>  <construct-sequence>
QVQLVESGGGLVQAGASLRLSCAASGSIFSGYTMGWYRQAPGKERELVAGISYRGGSTYYADSVKGRFTISRDNAKNTVYLQMNSLKPEDTAVYYCAALYYRRGSLNYEYWGQGTQVTVSS

>  <polyreactivity (PSR sort gate)>
high polyreactivity

$$$$
>  <construct-sequence>
QVQLVESGGGLVQAGGSLRLSCAAYGSTLTWNAMGWYRQAPGKERELVAAITGVGSTNYADSVKGRFTISRDNAKNTVYLQMNSLKPEDSAVYYCAAQGSGSTLYEYWGQGTQVTVSS

>  <polyreactivity (PSR sort gate)>
low polyreactivity

$$$$
>  <construct-sequence>
QVQLVESGGGLVKAGVSLRLSCAASGSIFVGYAMGWYRQAPGKERELVAAIRSGGSTKYADSVKGRFTISRDNAKNTVYLQMNSLKPEDTAVYYCNVEVHPYYWVDNFHRYPVLHNYWGQGTQVTVSS

>  <polyreactivity (PSR sort gate)>
low polyreactivity

$$$$
>  <construct-sequence>
QVQLVESGGGLVQAGASLRLSCAASGSTFYYYAMGWYRQAPGKERELVAAITYRGGSTYYADSVKGRFTISRDNAKNTDFLQMNSLKPEDPAVYYCAADIVTGFISGPGYVYWGQGTQVTVSS

>  <polyreactivity (PSR sort gate)>
high polyreactivity

$$$$
>  <construct-sequence>
QVQLVESGGGLVQAGGSLRLSCAASGSIFYRYAMGWYRQAPGKERELVASISSGVSTNYADSVKGRFTISRDNAKNTVYLQLNSLKPEDTAVYYCAVRHRYTRAYWGRDYWGQGTQVTVSS

>  <polyreactivity (PSR sort gate)>
low polyreactivity

$$$$
